Assay text: Plasma pharmacokinetics after single IV and PO dose
Format: in vivo, male C57BL6/j mice
Details: male, C57BL6/j, mouse; plasma, IV 20 mg/kg; read-out: systemic clearance (converted)
Value kind: clearance (mL/min/kg)
Reply with just the number (in mL/min/kg).

Field clearance (entry CC(C)Oc1ccc(CN2CCNCC2)cc1-n1c(CN2CCN(C(=O)COc3ccc(Cl)cc3)CC2)nc2ccccc2c1=O [PE] ) reads 39.2

###

Assay text: Plasma pharmacokinetics after single IV and PO dose
Type: in vivo, male C57BL6/j mice
Details: male, C57BL6/j, mouse, plasma, iv, 20 mg/kg, IV 20 mg/kg, 12 hr; read-out: Plasma Concentration, Mean
Value kind: concentration at 12 hr (ng/mL)
Expressed in ng/mL, but write only the number.

Query CC(C)Oc1ccc(CN2CCNCC2)cc1-n1c(CN2CCN(C(=O)COc3ccc(Cl)cc3)CC2)nc2ccccc2c1=O [PE] yields concentration at 12 hr of 96.8

###

Assay text: Plasma pharmacokinetics after single IV and PO dose
Type: in vivo, male C57BL6/j mice
Details: male, C57BL6/j, mouse; plasma, IV 20 mg/kg; read-out: MRT(0-∞)
Value kind: MRT inf (h)
Give the value in h but do not write h after it.

Lab note: CC(C)Oc1ccc(CN2CCNCC2)cc1-n1c(CN2CCN(C(=O)COc3ccc(Cl)cc3)CC2)nc2ccccc2c1=O [PE] gave MRT inf of 2.67

###

Assay text: in vivo
Details: male, C57BL6/j, mouse, iv, 20 mg/kg
Value kind: Tmax (min)
Numeric only. Scale: min

For this compound ( CC(C)Oc1ccc(CN2CCNCC2)cc1-n1c(CN2CCN(C(=O)COc3ccc(Cl)cc3)CC2)nc2ccccc2c1=O ), measured Tmax is 30

###

Assay text: Plasma pharmacokinetics after single IV and PO dose
Type: in vivo, male C57BL6/j mice
Details: male, C57BL6/j, mouse; plasma, IV 20 mg/kg
Value kind: Tmax (min)
Give the quantity in min, number only.

So for CC(C)Oc1ccc(CN2CCNCC2)cc1-n1c(CN2CCN(C(=O)COc3ccc(Cl)cc3)CC2)nc2ccccc2c1=O , the logged Tmax turned out to be 30

###

Assay text: Plasma pharmacokinetics after single IV and PO dose
Assay type: in vivo, male C57BL6/j mice
Details: male, C57BL6/j, mouse, plasma, iv, 20 mg/kg, IV 20 mg/kg, 2 hr; read-out: Plasma Concentration, individual mice
Value kind: concentration at 2 hr (µg/mL)
Give your result in µg/mL as a bare value.

For CC(C)Oc1ccc(CN2CCNCC2)cc1-n1c(CN2CCN(C(=O)COc3ccc(Cl)cc3)CC2)nc2ccccc2c1=O [PE] the compound record lists concentration at 2 hr as 0.92

###

Assay text: Plasma pharmacokinetics after single IV and PO dose
Type: in vivo, male C57BL6/j mice
Details: male, C57BL6/j, mouse, plasma, po, 20 mg/kg, PO 20 mg/kg, 1 hr; read-out: Plasma Concentration, Mean
Procedure: Three mice in each group were used for blood collection at each time point. Blood samples (approximately 400 μL) were collected after euthanasia using carbon dioxide inhalation via cardiac puncture pre-dose and 30 minutes, 1 hour, 2 hours, 4 hours, 8 hours and 12 hours post-dose. Blood samples were placed into tubes containing sodium heparin and centrifuged at 8000 rpm for 6 minutes at 4° C. to separate plasma from the blood samples. […]
Value kind: concentration at 1 hr (µg/mL)
Response body: numeric value in µg/mL, unit text excluded.

concentration at 1 hr reported for this compound CC(C)Oc1ccc(CN2CCNCC2)cc1-n1c(CN2CCN(C(=O)COc3ccc(Cl)cc3)CC2)nc2ccccc2c1=O : 1.39

###

Assay text: in vivo
Details: male, C57BL6/j, mouse, iv, 20 mg/kg, Brain Concentration, individual mice
Value kind: concentration at 2 h
Field note: include the unit after the figure.

// recorded concentration at 2 h for CC(C)Oc1ccc(CN2CCNCC2)cc1-n1c(CN2CCN(C(=O)COc3ccc(Cl)cc3)CC2)nc2ccccc2c1=O : 79.1 ng/g

###

Assay text: in vivo
Details: male, C57BL6/j, mouse, iv, 20 mg/kg, Brain Concentration, individual mice
Value kind: concentration at 4 h (ng/g)
Answer format: numeric, ng/g implied, no suffix.

Reported concentration at 4 h of CC(C)Oc1ccc(CN2CCNCC2)cc1-n1c(CN2CCN(C(=O)COc3ccc(Cl)cc3)CC2)nc2ccccc2c1=O [PE] : 34.1

###

Assay text: in vivo
Details: male, C57BL6/j, mouse, po, 20 mg/kg, Brain Concentration, Mean
Value kind: concentration at 1 h (ng/g)
Respond numerically; units are ng/g and should not be typed.

get_value(item= CC(C)Oc1ccc(CN2CCNCC2)cc1-n1c(CN2CCN(C(=O)COc3ccc(Cl)cc3)CC2)nc2ccccc2c1=O [PE] , readout=concentration at 1 h) returns 14.9

###

Assay text: in vivo
Details: male, C57BL6/j, mouse, po, 20 mg/kg, Brain Concentration, Mean
Value kind: concentration at 2 h
Be sure to follow the number with its unit.

Entry CC(C)Oc1ccc(CN2CCNCC2)cc1-n1c(CN2CCN(C(=O)COc3ccc(Cl)cc3)CC2)nc2ccccc2c1=O [PE] , concentration at 2 h reported as 12.3 ng/g

###

Assay text: in vivo
Details: male, C57BL6/j, mouse, iv, 20 mg/kg
Value kind: MRT inf (h)
# value in h; strip the unit string

Documented MRT inf of CC(C)Oc1ccc(CN2CCNCC2)cc1-n1c(CN2CCN(C(=O)COc3ccc(Cl)cc3)CC2)nc2ccccc2c1=O : 9.91

###

Assay text: Plasma pharmacokinetics after single IV and PO dose
Format: in vivo, male C57BL6/j mice
Details: male, C57BL6/j, mouse, plasma, iv, 20 mg/kg, IV 20 mg/kg, 2 hr; read-out: Plasma Concentration, Mean
Value kind: concentration at 2 hr (ng/mL)
Could you give me the number in ng/mL? Just the number is fine.

Entry CC(C)Oc1ccc(CN2CCNCC2)cc1-n1c(CN2CCN(C(=O)COc3ccc(Cl)cc3)CC2)nc2ccccc2c1=O ; concentration at 2 hr = 997

###

Assay text: in vivo
Details: male, C57BL6/j, mouse, po, 20 mg/kg, Brain-Plasma Concentration Ratio, Mean
Value kind: Kp at 1 h
Enter a number only.

Noted for CC(C)Oc1ccc(CN2CCNCC2)cc1-n1c(CN2CCN(C(=O)COc3ccc(Cl)cc3)CC2)nc2ccccc2c1=O : its Kp at 1 h reads 0.01

###

Assay text: in vivo
Details: male, C57BL6/j, mouse, iv, 20 mg/kg, Brain-Plasma Concentration Ratio, individual mice
Value kind: Kp at 0.5 hr

Entry under test: CC(C)Oc1ccc(CN2CCNCC2)cc1-n1c(CN2CCN(C(=O)COc3ccc(Cl)cc3)CC2)nc2ccccc2c1=O . Its Kp at 0.5 hr was 0.03

###

Assay text: Plasma pharmacokinetics after single IV and PO dose
Assay type: in vivo, male C57BL6/j mice
Details: male, C57BL6/j, mouse; plasma, PO 20 mg/kg
Value kind: AUC(0-t) (ng·h/mL)
State just the number; it will be interpreted in ng·h/mL.

Item: CC(C)Oc1ccc(CN2CCNCC2)cc1-n1c(CN2CCN(C(=O)COc3ccc(Cl)cc3)CC2)nc2ccccc2c1=O [PE] | AUC(0-t): 4810

###

Assay text: in vivo
Details: male, C57BL6/j, mouse, iv, 20 mg/kg, Brain-Plasma Concentration Ratio, Mean
Value kind: Kp at 8 h
Returns: the value as a bare number; no unit string appended.

Kp at 8 h recorded for this molecule, CC(C)Oc1ccc(CN2CCNCC2)cc1-n1c(CN2CCN(C(=O)COc3ccc(Cl)cc3)CC2)nc2ccccc2c1=O , is 0.23

###

Assay text: Plasma pharmacokinetics after single IV and PO dose
Format: in vivo, male C57BL6/j mice
Details: male, C57BL6/j, mouse, plasma, po, 20 mg/kg, PO 20 mg/kg, 0.5 hr
Value kind: concentration at 0.5 hr (ng/mL)
Write it as a number; the unit ng/mL goes unstated.

Reported concentration at 0.5 hr for CC(C)Oc1ccc(CN2CCNCC2)cc1-n1c(CN2CCN(C(=O)COc3ccc(Cl)cc3)CC2)nc2ccccc2c1=O was 286

###

Assay text: in vivo
Details: male, C57BL6/j, mouse, iv, 20 mg/kg, Brain Concentration, Mean
Value kind: concentration at 8 h (ng/g)
Number only, in ng/g; omit the unit.

Kindly note the recorded concentration at 8 h for CC(C)Oc1ccc(CN2CCNCC2)cc1-n1c(CN2CCN(C(=O)COc3ccc(Cl)cc3)CC2)nc2ccccc2c1=O , which is 30

###

Assay text: in vivo
Details: male, C57BL6/j, mouse, iv, 20 mg/kg, Brain-Plasma Concentration Ratio, Mean
Value kind: Kp at 0.5 hr
Number, no unit, nothing else.

Per the record, CC(C)Oc1ccc(CN2CCNCC2)cc1-n1c(CN2CCN(C(=O)COc3ccc(Cl)cc3)CC2)nc2ccccc2c1=O has Kp at 0.5 hr of 0.03
